The measurements presented in this section are drawn from patent US20080090834A1.

Target: cloned rat PDE10A full-length enzyme (Rattus norvegicus, UniProt Q9QYJ6)
Construct: cloned rat PDE10A full-length enzyme grown in transfected Sf9 insect cells; made in house; host or cells: Sf9 insect cells
Sequence (Q9QYJ6 1-794): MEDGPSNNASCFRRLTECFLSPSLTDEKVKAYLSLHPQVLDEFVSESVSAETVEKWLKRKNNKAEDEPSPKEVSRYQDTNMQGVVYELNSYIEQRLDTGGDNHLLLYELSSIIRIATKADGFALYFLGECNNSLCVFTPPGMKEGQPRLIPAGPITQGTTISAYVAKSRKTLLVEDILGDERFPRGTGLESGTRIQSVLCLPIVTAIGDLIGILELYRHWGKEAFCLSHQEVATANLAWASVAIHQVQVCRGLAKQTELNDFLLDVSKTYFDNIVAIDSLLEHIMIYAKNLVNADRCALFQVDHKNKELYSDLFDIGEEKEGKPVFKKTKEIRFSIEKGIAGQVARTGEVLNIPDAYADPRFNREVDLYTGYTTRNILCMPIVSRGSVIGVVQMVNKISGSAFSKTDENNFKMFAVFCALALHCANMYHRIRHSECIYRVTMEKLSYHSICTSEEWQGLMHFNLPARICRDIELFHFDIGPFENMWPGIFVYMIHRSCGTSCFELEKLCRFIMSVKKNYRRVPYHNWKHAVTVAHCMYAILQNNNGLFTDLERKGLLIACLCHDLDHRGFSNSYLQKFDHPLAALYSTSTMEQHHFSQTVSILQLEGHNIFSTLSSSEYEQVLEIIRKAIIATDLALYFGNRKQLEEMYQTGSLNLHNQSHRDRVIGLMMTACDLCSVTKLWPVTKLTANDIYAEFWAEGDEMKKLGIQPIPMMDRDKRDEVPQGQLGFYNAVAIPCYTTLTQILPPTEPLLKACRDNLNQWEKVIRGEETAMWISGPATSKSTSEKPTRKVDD
Test: PDE10 enzyme inhibition, [3H]cAMP scintillation proximity assay
Assay type: biochemical
Conditions: rat PDE10A from Sf9 cells, 20 nM [3H]cAMP, SPA beads, 20 minute incubation at room temperature
Structures can show the parent of a compound that is named as a salt.
test-readout: log10 of IC50 (log10 of the value in nM)

[[record]]
compound = "c1ccc(-c2nc(-c3ccc(-n4ccc5cccnc54)cc3)n(-c3cccnc3)n2)nc1"
measured_on = "cloned rat PDE10A full-length enzyme (Rattus norvegicus, UniProt Q9QYJ6)"
test_readout = "log10 of IC50"
recorded_number = 1.42

[[record]]
compound = "c1ccc(-c2cn(-c3cccnc3)c(-c3ccc(-n4c(-c5ccccn5)nc5ccccc54)cc3)n2)nc1"
measured_on = "cloned rat PDE10A full-length enzyme (Rattus norvegicus, UniProt Q9QYJ6)"
test_readout = "log10 of IC50"
recorded_number = 1.52

[[record]]
compound = "Cc1cc(-c2nc(-c3cncs3)[nH]c2-c2cnccn2)ccc1-n1ccc2cccnc21"
measured_on = "cloned rat PDE10A full-length enzyme (Rattus norvegicus, UniProt Q9QYJ6)"
test_readout = "log10 of IC50"
recorded_number = 2.24

[[record]]
compound = "Cc1ccc(-n2cc(-c3ccccn3)nc2-c2ccc(-n3cnc4cncnc43)cc2)cn1"
measured_on = "cloned rat PDE10A full-length enzyme (Rattus norvegicus, UniProt Q9QYJ6)"
test_readout = "log10 of IC50"
recorded_number = 1.01

[[record]]
compound = "Cn1ccnc1-c1cn(-c2cncnc2)c(-c2ccc(-n3ccc4cccnc43)cc2)n1"
measured_on = "cloned rat PDE10A full-length enzyme (Rattus norvegicus, UniProt Q9QYJ6)"
test_readout = "log10 of IC50"
recorded_number = 2.44

[[record]]
compound = "COc1cc(-c2ccc(-c3nc(-c4ccccn4)cn3-c3cccnc3)cc2)c2ncccc2c1"
measured_on = "cloned rat PDE10A full-length enzyme (Rattus norvegicus, UniProt Q9QYJ6)"
test_readout = "log10 of IC50"
recorded_number = -0.10

[[record]]
compound = "Cc1ccc(-n2cc(-c3ccccn3)nc2-c2ccc(-n3cnc4ncccc43)cc2)cn1 (single isomer, unassigned)"
measured_on = "cloned rat PDE10A full-length enzyme (Rattus norvegicus, UniProt Q9QYJ6)"
test_readout = "log10 of IC50"
recorded_number = 1.80

[[record]]
compound = "Cc1csc(-c2cn(-c3cncnc3)c(-c3ccc(-n4ccc5cccnc54)cc3)n2)n1"
measured_on = "cloned rat PDE10A full-length enzyme (Rattus norvegicus, UniProt Q9QYJ6)"
test_readout = "log10 of IC50"
recorded_number = 1.14

[[record]]
compound = "Cc1cc(-n2cc(-c3cccnc3)nc2-c2ccc(-n3ccc4cccnc43)cc2)ccn1 [Example 68, bis-TFA salt]"
measured_on = "cloned rat PDE10A full-length enzyme (Rattus norvegicus, UniProt Q9QYJ6)"
test_readout = "log10 of IC50"
recorded_number = 0.71

[[record]]
compound = "COc1ccnc2c(-c3ccc(-c4nc(-c5ccccn5)cn4-c4cccnc4)cc3)cc(C)cc12"
measured_on = "cloned rat PDE10A full-length enzyme (Rattus norvegicus, UniProt Q9QYJ6)"
test_readout = "log10 of IC50"
recorded_number = 2.19

[[record]]
compound = "Cc1ccc(-n2cc(-c3ncc(C)s3)nc2-c2ccc(-n3ccc4cccnc43)cc2)cn1"
measured_on = "cloned rat PDE10A full-length enzyme (Rattus norvegicus, UniProt Q9QYJ6)"
test_readout = "log10 of IC50"
recorded_number = 1.74

[[record]]
compound = "c1ccc(-c2cn(-c3cccnc3)c(-c3ccc(-c4cccc5cccnc45)cc3)n2)nc1"
measured_on = "cloned rat PDE10A full-length enzyme (Rattus norvegicus, UniProt Q9QYJ6)"
test_readout = "log10 of IC50"
recorded_number = 0.60

[[record]]
compound = "c1cnc2c(c1)ccn2-c1ccc(-c2nc(-c3nccs3)cn2-c2cncnc2)cc1"
measured_on = "cloned rat PDE10A full-length enzyme (Rattus norvegicus, UniProt Q9QYJ6)"
test_readout = "log10 of IC50"
recorded_number = 0.64

[[record]]
compound = "CCCOc1nc2cccnc2n1-c1ccc(-c2nc(-c3ccccn3)cn2-c2ccc(C)nc2)cc1"
measured_on = "cloned rat PDE10A full-length enzyme (Rattus norvegicus, UniProt Q9QYJ6)"
test_readout = "log10 of IC50"
recorded_number = -0.13

[[record]]
compound = "c1ccc(-c2cn(-c3ccc(-n4ccnc4)nc3)c(-c3ccc(-n4ccc5cccnc54)cc3)n2)nc1"
measured_on = "cloned rat PDE10A full-length enzyme (Rattus norvegicus, UniProt Q9QYJ6)"
test_readout = "log10 of IC50"
recorded_number = 0.17

[[record]]
compound = "c1ccc(-c2cn(-c3cccnc3)c(-c3ccc(-n4cnc5ccccc54)cc3)n2)nc1"
measured_on = "cloned rat PDE10A full-length enzyme (Rattus norvegicus, UniProt Q9QYJ6)"
test_readout = "log10 of IC50"
recorded_number = 1.99

